These entries and their values trace back to PubChem BioAssay (NCATS).

Test: qHTS for Inhibitors of the Functional Ribonucleoprotein Complex (vRNP) of Lymphocytic Choriomeningitis Arenaviruses (LCMV): Viability assay - alamar blue signal for LCMV Primary Screen (AID 1347085); also: nearly all actives have a fitted effect of over 80% in size
Conditions: alamar blue viability counter-screen, LCMV vRNP screen cells; series mostly up to 57.5 µM
Records with an inconclusive call do not appear. Activity calls are given as the source filed them. Calls follow the shape of the full dose curve; tested in HEK293 reporter line.
Allowed answers: active, inactive

Before answering, review these 4 worked examples.
[
  {
    "Molecule": "CC1=CC=C(C(C)C)CC1",
    "Qualitative Label": "inactive"
  },
  {
    "Molecule": "COc1ccc(CCN(C)CCCC(C#N)(c2ccc(OC)c(OC)c2)C(C)C)cc1OC (stereo not given)",
    "Qualitative Label": "inactive"
  },
  {
    "Molecule": "Cn1cc(-c2cnn3c(N)c(Br)c([C@H]4CCCNC4)nc23)cn1",
    "Qualitative Label": "active"
  },
  {
    "Molecule": "COc1ccc([C@@H]2CC(=O)c3c(O)cc(O[C@@H]4OC(CO[C@@H]5OC(C)[C@H](O)[C@@H](O)[C@H]5O)[C@@H](O)[C@H](O)[C@H]4O)cc3O2)cc1O (stereo not given in full)",
    "Qualitative Label": "inactive"
  }
]

Below: the item to evaluate.
**Q:** What did this assay record as the result for OCC1O[C@H]([S-])[C@H](O)[C@@H](O)[C@@H]1O.[Au+] (stereo not given in full) ?
**A:** inactive
